System: HS 578T breast
Test: NCI-60 one-dose screen, 48 h (100 = growth as untreated, 0 = no growth, -100 = all killed)
Conditions: 10 µM unless noted
The panel holds about 83,000 compounds, 20% with a hit somewhere; the sample as a whole holds those more often. Activity calls are given as the source filed them. The calls were made as follows: active = growth percent below 10; inactive = the rest.
Task for the reader: assign each of the following compounds its reported growth.

What does the record list as growth for COc1cc(/C=C/C(=O)c2ccc(Nc3nc(NCCO)nc(N4CCOCC4)n3)cc2)cc(OC)c1OC ?
9.53% (active)

What does the record list as growth for CCC1=C[C@@H]2CN(C1)Cc1c([nH]c3ccccc13)[C@@](C(=O)OC)(c1cc3c(cc1OC)N(C)[C@H]1[C@@](O)(C(=O)OC)[C@H](OC(C)=O)[C@]4(CC)[C@@H]5C[C@@H]5CN5CC[C@]31[C@@H]54)C2 ?
-5.73% (active)

What does the record list as growth for O=c1oc2ccc(Cl)cc2c(=O)n1-c1ccc(F)cc1F ?
8.54% (active)

What does the record list as growth for CC/C(=C(\CC)c1ccc(OCC[N+](C)(C)C)cc1)c1ccc(OC)cc1 ?
72.3% (inactive)

What does the record list as growth for O=C1/C(=C\c2ccc[nH]2)c2ccccc2N1c1ccccc1 ?
92.3% (inactive)

What does the record list as growth for O=C(N/N=C/c1ccccc1O)C(=O)Nc1ccc(F)cc1 ?
74.6% (inactive)

What does the record list as growth for Cn1c(=O)n(C)c2cc(CNCCNc3ccnc4cc(Cl)ccc34)ccc21 ?
77.6% (inactive)

What does the record list as growth for O=C(N/N=C/c1ccccc1Cl)C(=O)Nc1cccc(C(F)(F)F)c1 ?
111% (inactive)

What does the record list as growth for CCN1CCN(C(=S)SCC(=O)Nc2nc3ccc(C)cc3s2)CC1 ?
112% (inactive)

---

Tested on: OVCAR-5 ovarian
Assay: NCI-60 one-dose screen, 48 h (100 = growth as untreated, 0 = no growth, -100 = all killed)
Details: 10 µM unless noted
About 83,000 compounds went through this panel and 20% of them were active in at least one assay; those are over-represented in the sample as a whole.
readout-name: growth (%)
Unit % implied. Number only.

What does the record list as growth for COc1ccc(-c2nsc3c2NC(=O)CC3c2ccc3c(c2)OCCO3)cc1 (stereo not given) ?
37.5

What does the record list as growth for COC(=O)/C(CCC=C(C)C)=C1\[C@@H](OC(C)=O)C[C@@]2(C)[C@H]1C[C@@H](O)[C@H]1[C@@]3(C)CC[C@H](NCc4ccccc4)[C@@H](C)[C@@H]3CC[C@@]12C ?
88.7

What does the record list as growth for O=C1NC(=S)NC(=O)C1=Cc1cn(Cc2cn(Cc3cccc4ccccc34)nn2)c2ccccc12 ?
89.6

What does the record list as growth for Cc1cccc(NC(=O)c2sc3nc4c(cc3c2N)CCCC4)c1C ?
44.1

What does the record list as growth for COc1cc2nc(-c3cnc(N(C)C)nc3)nc(NC3CCN(Cc4ccccc4)CC3)c2cc1OC ?
-94.8

What does the record list as growth for COc1ccc2[nH]c(O)c(N=NC(=O)c3oc4ccccc4c3C)c2c1 ?
41.7

What does the record list as growth for O=C(/C=C/c1ccc(C(F)(F)F)cc1)c1ccc(Nc2nc(NCCO)nc(N3CCOCC3)n2)cc1 ?
68.6

What does the record list as growth for CCOC(=O)CSc1c(-c2ccccc2)c2cc(Cl)ccc2[nH]c1=O ?
105

What does the record list as growth for CCc1ccc(CNCC(O)c2ccccc2)cc1 (stereo not given) ?
76.1

What does the record list as growth for O=C1/C=C/[C@@H](O)[C@@H]2C[C@@H](O)C[C@H]2/C=C/CCCCO1 ?
36.6

What does the record list as growth for O=C(CCc1nnc2sc(Cc3ccccc3Cl)nn12)c1nc2ncccc2[nH]1 ?
93.3

What does the record list as growth for C=CCN1C(=O)/C(=c2\sc3n(c2=O)NC2C(N=3)N(CC)C(=O)N2CC)c2ccccc21 (stereo not given) ?
44.2

What does the record list as growth for COC(=O)[C@H](NC(=O)C1(C)CCC[C@]2(C)[C@H]3C[C@H]4C(C(C)C)=C[C@]3(CC[C@@H]12)[C@@H]1C(=O)CCC(=O)[C@@H]14)C(C)C (stereo not given in full) ?
98.7

What does the record list as growth for Cc1ccc(C2CC(c3ccc(Nc4nc(NCCO)nc(Nc5ccc(Cl)cc5)n4)cc3)=NN2c2cc(Cl)cc(Cl)c2)cc1 (stereo not given) ?
94.2

What does the record list as growth for CCCCCCC(O)(c1ccc(F)cc1)C(CN1CCOCC1)c1ccccc1 (stereo not given) ?
69.8

What does the record list as growth for Cc1ccc2[nH]c(=O)cc(-n3nncc3Cn3c4ccccc4c4ccccc43)c2c1 ?
104

What does the record list as growth for Cn1c(/C=C(\C#N)c2ccccc2)nc2c(N3CCOCC3)nc(Cl)nc21 ?
-50.1

What does the record list as growth for COc1cc(CNC(=O)Cc2ccccc2)ccc1OCc1cn(-c2ccc(F)cc2)nn1 ?
108

What does the record list as growth for Cn1nc(C(C)(C)C)cc1NC(=O)Cc1ccc(/C=C2\C(=O)Nc3ccccc32)cc1 ?
107

What does the record list as growth for Nc1ncnc(N)c1NC(=O)c1ccc(OCc2ccccc2)cc1 ?
106

What does the record list as growth for COc1ccc(/C=C2\N=C(c3ccccc3)N(c3ccc(-c4nc5ccc(C)cc5s4)cc3)C2=O)cc1 ?
84.7

What does the record list as growth for Cn1c(=O)n(C)c2cc(CNCCNc3ccnc4cc(Cl)ccc34)ccc21 ?
76.7

What does the record list as growth for O=C(Cc1ccccc1)NC(c1ccc(Cl)cc1)c1c(O)ccc2ccccc12 (stereo not given) ?
45.7

What does the record list as growth for COc1ccc(/C=c2\sc3n(c2=O)NC2C(N=3)N(C)C(=O)N2C)cc1 (stereo not given) ?
95.1

What does the record list as growth for Nc1nc(Nc2cccc(F)c2)nc2ccccc12 ?
54.1

What does the record list as growth for COc1cccc(C(=O)Cn2cc(/C=C(\C#N)S(=O)(=O)c3ccccc3)c3ccccc32)c1 ?
47.9

What does the record list as growth for CCCCCCc1cc2cc(-c3nc4ccccc4[nH]3)c(=Nc3ccccc3C)oc2cc1O ?
57.7

What does the record list as growth for COC(=O)/C(CCC=C(C)C)=C1\[C@@H](OC(C)=O)C[C@@]2(C)[C@H]1CC(=O)[C@H]1[C@@]3(C)CC[C@H](NCc4ccccc4)[C@@H](C)[C@@H]3CC[C@@]12C ?
95

What does the record list as growth for CCN(CC)c1cc(C)c2cc(NC(=O)c3cccc(OC)c3)ccc2n1 ?
98.3

What does the record list as growth for COc1ccc(N(C)c2nc(N)nc3sc4c(c23)CCCC4)cc1 ?
49.8

What does the record list as growth for COc1ccc(Cn2c(Br)c3c(c2Br)-c2nc(N)sc2CC3)cc1 ?
91.4

What does the record list as growth for CCn1c(-c2nonc2Nc2ccc(OC)cc2)nc2ccccc21 ?
107

What does the record list as growth for O=C1c2ccccc2C(=O)c2c1ccc1[nH]c(CCl)nc21 ?
70.4

What does the record list as growth for O=C1N=c2ccccc2=C1c1sc(=Nc2ccccc2)n(Nc2ccccc2)c1O ?
101

What does the record list as growth for Cc1ccccc1CNC(=O)C1CN(c2ccc(Cl)cc2)N(c2ccc(Cl)cc2)C1=O (stereo not given) ?
91.8

What does the record list as growth for COc1cc(C(C)n2cc(-c3ccccc3)nn2)ccc1OC1CCCC1 (stereo not given) ?
93.1

What does the record list as growth for O=C(Nc1ccc(N2CCNCC2)cc1)c1[nH]ncc1Nc1ncnc2sc3c(c12)CCC3 ?
-88.1

What does the record list as growth for CCOC(=O)C1=CN(C)C=C(C(=O)OCC)C1c1cc(Br)c(OCC)c(OC)c1 ?
63.5

What does the record list as growth for O=C(Nc1ccc(Cl)cc1F)c1cc(Br)ccc1O ?
22

What does the record list as growth for O=C(CSc1ccc2nnc(-c3cccc(F)c3)n2n1)Nc1ccc2c(c1)OCO2 ?
113
